system: Aerobactin synthetase IucA (Klebsiella pneumoniae, hypervirulent); assay: IucA enzyme inhibition, biochemical, LOPAC library, absorbance readout (AID 1346212); conditions: IucA enzyme assay, absorbance (OD) readout; active compounds read low;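 tested at 8 µM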;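 further: 100% = no compound wells and 0% = no enzyme wells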
PROPERTY: remaining activity (%)
Reply with just the number (in %).

| SMILES STRING | PROPERTY | U | OBSERVED RESULT |
| --- | --- | --- | --- |
| O=[N+]([O-])c1ccc(O[C@@H]2O[C@H](CO)[C@@H](O)[C@H](O)[C@H]2F)c([N+](=O)[O-])c1 | remaining activity | % | 96.8 |
| CC(=O)N[C@@H](Cc1c[nH]c2ccccc12)C(=O)OCc1cc(C(F)(F)F)cc(C(F)(F)F)c1 | remaining activity | % | 117 |
| Ic1ccc(N2CCN(Cc3c[nH]c4ncccc34)CC2)cc1 | remaining activity | % | 115 |
| O=P(O)(O)C(Cl)(Cl)P(=O)(O)O | remaining activity | % | 94.8 |

Please find the next molecule below.
Consider the molecule `COc1ccccc1N1CCN(CCN(C(=O)c2ccc(I)cc2)c2ccccn2)CC1` and give its measured remaining activity.
122

---

Parameter: inhibition. Scope: all listed entries.
tested on: Hepatitis C virus NS3 helicase; assay: HCV NS3 helicase inhibitors, primary screen, biochemical, fluorescence polarization, LOPAC1280 library (AID 687035); details: Purified HCV NS3 helicase, Cy5-dT15 ssDNA binding fluorescence polarization; active compounds read high; concentration not given here
Give just the number in %; leave the unit off.

| COMPOUND | EXPERIMENTAL SYSTEM | PROPERTY | U | OBSERVED RESULT |
| --- | --- | --- | --- | --- |
| CCC1(C2=NCCN2)Cc2ccccc2O1 (centres undefined) | Hepatitis C virus NS3 helicase | inhibition | % | -1 |
| CC(C)NP(=O)(NC(C)C)OP(=O)(NC(C)C)NC(C)C | Hepatitis C virus NS3 helicase | inhibition | % | -5 |
| Clc1ccc(C(c2ccc(Cl)cc2)n2cc[n+](CC(OCc3ccc(Cl)cc3Cl)c3ccc(Cl)cc3Cl)c2)cc1 (centres undefined) | Hepatitis C virus NS3 helicase | inhibition | % | -3 |
| CN1C(=O)CCS(=O)(=O)C1c1ccc(Cl)cc1 (centres undefined) | Hepatitis C virus NS3 helicase | inhibition | % | 0 |
| Fc1ccc(C(OCCN2CCN(CCCc3ccccc3)CC2)c2ccc(F)cc2)cc1 | Hepatitis C virus NS3 helicase | inhibition | % | -2 |
| N[C@@H](Cn1oc(=O)[nH]c1=O)C(=O)O | Hepatitis C virus NS3 helicase | inhibition | % | -2 |

Query inhibition on Hepatitis C virus NS3 helicase for `NCCc1ccc(S(=O)(=O)F)cc1`
-2

Also COc1ccc(C(CN(C)C)C2(O)CCCCC2)cc1 (centres undefined) ?
-1

Then what about the compound CC(N)[C@H](O)c1ccc(O)c(O)c1 (some centres undefined) ?
0

Now try CNCC(O)c1ccc(O)cc1 (centres undefined) .
-2

Try this compound next: Oc1ccc2c3c1O[C@H]1c4[nH]c5ccccc5c4C[C@@]4(O)C(C2)N(CC2CC2)CCC314 (some centres undefined)
-4

Same again, this time with `COc1ccc2c(c1)[C@@]13CCCC[C@H]1[C@@H](C2)NCC3`
-5

Can you check `CCN(CC)c1ncnc2c1ncn2[C@@H]1O[C@H](COP(=O)(O)OP(=O)(O)C(Br)(Br)P(=O)(O)O)[C@@H](O)[C@H]1O` next?
-1

Same thing, different compound: `C=CCN(C1=NCCN1)c1c(Cl)cccc1Cl`
-4

// same read-out, input: `C#CCN[C@H](C)Cc1ccccc1`
-2

Also need `NCC1(CC(=O)O)CCCCC1` , thanks.
-6

Check `Nc1ccncc1` too.
-4

Here is the next compound: `NC(N)=Nc1ccc2[nH]c3c(c2c1)C[C@@]1(O)[C@H]2Cc4ccc(O)c5c4[C@@]1(CCN2CC1CC1)[C@H]3O5`
-6

For NCC(CP(=O)(O)O)c1ccc(Cl)cc1 (centres undefined) then?
-1

OC1CCCCC1N1CCC(c2ccccc2)CC1 (centres undefined) ?
-4

Check `COc1ccc(C(=O)N2CCCC2=O)cc1` too.
-3

Repeat with `Clc1cnc(Oc2ccc(Oc3ncc(Cl)cc3Cl)cc2)c(Cl)c1`
-3

What do you have for `CCCN(CCC)[C@@H]1CCc2cccc(O)c2C1` ?
-5

// repeat for `CCn1cnc2c(Nc3cccc(Cl)c3)nc(N[C@@H]3CCCC[C@@H]3N)nc21` and report
-2
